Data provenance: the supplement of paper PMC6004109

# System: Candida glabrata ZIM 2389 (RPMI)
# Test name: FICI maximum (fractional inhibitory concentration index, Loewe) (dimensionless); higher = less synergy / more antagonism
# Condition context: temperature: 37 °C
Measured attribute: FICI maximum
Write no unit; give the number alone.

-- ask Provide Candida glabrata ZIM 2389 (RPMI) FICI maximum reading for CN(Cc1cnc2nc(N)nc(N)c2n1)c1ccc(C(=O)N[C@@H](CCC(=O)O)C(=O)O)cc1 [methotrexate] + OC(Cn1cncn1)(Cn1cncn1)c1ccc(F)cc1F [fluconazole] .
-- reply 1.16

-- ask Please tell me the measured FICI maximum for COc1c(C)c2c(c(O)c1C/C=C(\C)CCC(=O)O)C(=O)OC2 [mycophenolic acid] + C[C@@H]1[C@H](O)[C@@H](C)/C=C/C=C/C=C/C=C/C=C/C=C/C=C/[C@H](O[C@@H]2O[C@H](C)[C@@H](O)[C@H](N)[C@@H]2O)C[C@@H]2O[C@](O)(C[C@@H](O)C[C@@H](O)[C@H](O)CC[C@@H](O)C[C@@H](O)CC(=O)O[C@H]1C)C[C@H](O)[C@H]2C(=O)O [amphotericin B] ; system: Candida glabrata ZIM 2389 (RPMI).
-- reply 1.01

-- ask # assay system Candida glabrata ZIM 2389 (RPMI): give FICI maximum of COc1c(C)c2c(c(O)c1C/C=C(\C)CCC(=O)O)C(=O)OC2 [mycophenolic acid] + CCC(C)n1ncn(-c2ccc(N3CCN(c4ccc(OCC5COC(Cn6cncn6)(c6ccc(Cl)cc6Cl)O5)cc4)CC3)cc2)c1=O [itraconazole]
-- reply 1.25

-- ask Report measured FICI maximum on Candida glabrata ZIM 2389 (RPMI); entry: CC1(C)S[C@@H]2[C@H](NC(=O)[C@H](N)c3ccc(O)cc3)C(=O)N2[C@H]1C(=O)O [amoxicillin] + OC(Cn1cncn1)(Cn1cncn1)c1ccc(F)cc1F [fluconazole]
-- reply 2.25

-- ask State FICI maximum (Candida glabrata ZIM 2389 (RPMI)) of CC1(C)S[C@@H]2[C@H](NC(=O)[C@H](N)c3ccc(O)cc3)C(=O)N2[C@H]1C(=O)O [amoxicillin] + CCC(C)n1ncn(-c2ccc(N3CCN(c4ccc(OCC5COC(Cn6cncn6)(c6ccc(Cl)cc6Cl)O5)cc4)CC3)cc2)c1=O [itraconazole] .
-- reply 1.25

###

# System: Saccharomyces cerevisiae ZIM 2558 (RPMI)
# Test name: Bliss independence sum of statistically significant ΔE (measured minus predicted growth inhibition) over checkerboard surface (fraction (sum of ΔE; 1 = 100%)); higher = more synergy
# Condition context: temperature: 37 °C
Measured attribute: Bliss independence sum
Number, no unit, nothing else.

COc1c(C)c2c(c(O)c1C/C=C(\C)CCC(=O)O)C(=O)OC2 [mycophenolic acid] + OC(Cn1cncn1)(Cn1cncn1)c1ccc(F)cc1F [fluconazole] | -8.75
CN(Cc1cnc2nc(N)nc(N)c2n1)c1ccc(C(=O)N[C@@H](CCC(=O)O)C(=O)O)cc1 [methotrexate] + C[C@@H]1[C@H](O)[C@@H](C)/C=C/C=C/C=C/C=C/C=C/C=C/C=C/[C@H](O[C@@H]2O[C@H](C)[C@@H](O)[C@H](N)[C@@H]2O)C[C@@H]2O[C@](O)(C[C@@H](O)C[C@@H](O)[C@H](O)CC[C@@H](O)C[C@@H](O)CC(=O)O[C@H]1C)C[C@H](O)[C@H]2C(=O)O [amphotericin B] | -1.12
CN(Cc1cnc2nc(N)nc(N)c2n1)c1ccc(C(=O)N[C@@H](CCC(=O)O)C(=O)O)cc1 [methotrexate] + OC(Cn1cncn1)(Cn1cncn1)c1ccc(F)cc1F [fluconazole] | 8.35

Next up:
-- ask State Bliss independence sum (Saccharomyces cerevisiae ZIM 2558 (RPMI)) of CC1(C)S[C@@H]2[C@H](NC(=O)[C@H](N)c3ccc(O)cc3)C(=O)N2[C@H]1C(=O)O [amoxicillin] + C[C@@H]1[C@H](O)[C@@H](C)/C=C/C=C/C=C/C=C/C=C/C=C/C=C/[C@H](O[C@@H]2O[C@H](C)[C@@H](O)[C@H](N)[C@@H]2O)C[C@@H]2O[C@](O)(C[C@@H](O)C[C@@H](O)[C@H](O)CC[C@@H](O)C[C@@H](O)CC(=O)O[C@H]1C)C[C@H](O)[C@H]2C(=O)O [amphotericin B] .
-- reply -2.25

###

# Test system: Candida glabrata ATCC 2001 (YPD)
# Test name: Bliss independence sum of statistically significant ΔE (measured minus predicted growth inhibition) over checkerboard surface (fraction (sum of ΔE; 1 = 100%)); higher = more synergy
# Condition context: temperature: 37 °C
Recorded Bliss independence sum for the following compounds
Give the figure by itself; no unit, no explanation.

COc1c(C)c2c(c(O)c1C/C=C(\C)CCC(=O)O)C(=O)OC2 [mycophenolic acid] + CC(=O)N1CCN(c2ccc(OCC3COC(Cn4ccnc4)(c4ccc(Cl)cc4Cl)O3)cc2)CC1 [ketoconazole] | -2.13

-- ask Using known records, supply Bliss independence sum for COc1c(C)c2c(c(O)c1C/C=C(\C)CCC(=O)O)C(=O)OC2 [mycophenolic acid] + OC(Cn1cncn1)(Cn1cncn1)c1ccc(F)cc1F [fluconazole]
-- reply -2.6

-- ask Fill in Bliss independence sum for record COc1c(C)c2c(c(O)c1C/C=C(\C)CCC(=O)O)C(=O)OC2 [mycophenolic acid] + C[C@@H](c1ncncc1F)[C@](O)(Cn1cncn1)c1ccc(F)cc1F [voriconazole]
-- reply -2.31

-- ask Look up Bliss independence sum of COc1c(C)c2c(c(O)c1C/C=C(\C)CCC(=O)O)C(=O)OC2 [mycophenolic acid] + CC[C@@H]([C@H](C)O)n1ncn(-c2ccc(N3CCN(c4ccc(OC[C@@H]5CO[C@@](Cn6cncn6)(c6ccc(F)cc6F)C5)cc4)CC3)cc2)c1=O [posaconazole] and report it.
-- reply -3.21

###

# Test system: Saccharomyces cerevisiae ZIM 2255 (RPMI)
# Test name: FICI minimum (fractional inhibitory concentration index, Loewe) (dimensionless); higher = less synergy / more antagonism
# Condition context: temperature: 37 °C
The entries below come with measured FICI minimum values attached.
Lab note: write the figure by itself, no unit.

CN(Cc1cnc2nc(N)nc(N)c2n1)c1ccc(C(=O)N[C@@H](CCC(=O)O)C(=O)O)cc1 [methotrexate] + OC(Cn1cncn1)(Cn1cncn1)c1ccc(F)cc1F [fluconazole] | 1

Proceeding to the next compound to report its FICI minimum.
-- ask Given CC1(C)S[C@@H]2[C@H](NC(=O)[C@H](N)c3ccc(O)cc3)C(=O)N2[C@H]1C(=O)O [amoxicillin] + C[C@@H]1[C@H](O)[C@@H](C)/C=C/C=C/C=C/C=C/C=C/C=C/C=C/[C@H](O[C@@H]2O[C@H](C)[C@@H](O)[C@H](N)[C@@H]2O)C[C@@H]2O[C@](O)(C[C@@H](O)C[C@@H](O)[C@H](O)CC[C@@H](O)C[C@@H](O)CC(=O)O[C@H]1C)C[C@H](O)[C@H]2C(=O)O [amphotericin B] , respond with its FICI minimum.
-- reply 1.01

###

# System: Saccharomyces cerevisiae ZIM 2255 (RPMI)
# Test name: FICI minimum (fractional inhibitory concentration index, Loewe) (dimensionless); higher = less synergy / more antagonism
# Condition context: temperature: 37 °C
Measured attribute: FICI minimum
Reply with just the number.

-- ask Please look at COc1c(C)c2c(c(O)c1C/C=C(\C)CCC(=O)O)C(=O)OC2 [mycophenolic acid] + C[C@@H]1[C@H](O)[C@@H](C)/C=C/C=C/C=C/C=C/C=C/C=C/C=C/[C@H](O[C@@H]2O[C@H](C)[C@@H](O)[C@H](N)[C@@H]2O)C[C@@H]2O[C@](O)(C[C@@H](O)C[C@@H](O)[C@H](O)CC[C@@H](O)C[C@@H](O)CC(=O)O[C@H]1C)C[C@H](O)[C@H]2C(=O)O [amphotericin B] and tell me its recorded FICI minimum on Saccharomyces cerevisiae ZIM 2255 (RPMI).
-- reply 1

-- ask State recorded FICI minimum with Saccharomyces cerevisiae ZIM 2255 (RPMI), entry CC1(C)S[C@@H]2[C@H](NC(=O)[C@H](N)c3ccc(O)cc3)C(=O)N2[C@H]1C(=O)O [amoxicillin] + OC(Cn1cncn1)(Cn1cncn1)c1ccc(F)cc1F [fluconazole] , no comment.
-- reply 2.01

-- ask Write down the reported FICI minimum (system: Saccharomyces cerevisiae ZIM 2255 (RPMI)) of COc1c(C)c2c(c(O)c1C/C=C(\C)CCC(=O)O)C(=O)OC2 [mycophenolic acid] + CCC(C)n1ncn(-c2ccc(N3CCN(c4ccc(OCC5COC(Cn6cncn6)(c6ccc(Cl)cc6Cl)O5)cc4)CC3)cc2)c1=O [itraconazole]
-- reply 0.517

###

# System: Saccharomyces cerevisiae ZIM 2255 (RPMI)
# Test name: FICI maximum (fractional inhibitory concentration index, Loewe) (dimensionless); higher = less synergy / more antagonism
# Condition context: temperature: 37 °C
Measured attribute: FICI maximum
Reply with the value as a number alone.

C=CC[C@@H]1/C=C(\C)C[C@H](C)C[C@H](OC)[C@H]2O[C@@](O)(C(=O)C(=O)N3CCCC[C@H]3C(=O)O[C@H](/C(C)=C/[C@@H]3CC[C@@H](O)[C@H](OC)C3)[C@H](C)[C@@H](O)CC1=O)[C@H](C)C[C@@H]2OC [tacrolimus] + CCC(C)n1ncn(-c2ccc(N3CCN(c4ccc(OCC5COC(Cn6cncn6)(c6ccc(Cl)cc6Cl)O5)cc4)CC3)cc2)c1=O [itraconazole] | 0.502
CN(Cc1cnc2nc(N)nc(N)c2n1)c1ccc(C(=O)N[C@@H](CCC(=O)O)C(=O)O)cc1 [methotrexate] + C[C@@H]1[C@H](O)[C@@H](C)/C=C/C=C/C=C/C=C/C=C/C=C/C=C/[C@H](O[C@@H]2O[C@H](C)[C@@H](O)[C@H](N)[C@@H]2O)C[C@@H]2O[C@](O)(C[C@@H](O)C[C@@H](O)[C@H](O)CC[C@@H](O)C[C@@H](O)CC(=O)O[C@H]1C)C[C@H](O)[C@H]2C(=O)O [amphotericin B] | 1.5
COc1c(C)c2c(c(O)c1C/C=C(\C)CCC(=O)O)C(=O)OC2 [mycophenolic acid] + C[C@@H]1[C@H](O)[C@@H](C)/C=C/C=C/C=C/C=C/C=C/C=C/C=C/[C@H](O[C@@H]2O[C@H](C)[C@@H](O)[C@H](N)[C@@H]2O)C[C@@H]2O[C@](O)(C[C@@H](O)C[C@@H](O)[C@H](O)CC[C@@H](O)C[C@@H](O)CC(=O)O[C@H]1C)C[C@H](O)[C@H]2C(=O)O [amphotericin B] | 1.25
CC1(C)S[C@@H]2[C@H](NC(=O)[C@H](N)c3ccc(O)cc3)C(=O)N2[C@H]1C(=O)O [amoxicillin] + OC(Cn1cncn1)(Cn1cncn1)c1ccc(F)cc1F [fluconazole] | 2.12
CN(Cc1cnc2nc(N)nc(N)c2n1)c1ccc(C(=O)N[C@@H](CCC(=O)O)C(=O)O)cc1 [methotrexate] + OC(Cn1cncn1)(Cn1cncn1)c1ccc(F)cc1F [fluconazole] | 1.08

Field: next compound
-- ask // fetch FICI maximum given entry CC1(C)S[C@@H]2[C@H](NC(=O)[C@H](N)c3ccc(O)cc3)C(=O)N2[C@H]1C(=O)O [amoxicillin] + C[C@@H]1[C@H](O)[C@@H](C)/C=C/C=C/C=C/C=C/C=C/C=C/C=C/[C@H](O[C@@H]2O[C@H](C)[C@@H](O)[C@H](N)[C@@H]2O)C[C@@H]2O[C@](O)(C[C@@H](O)C[C@@H](O)[C@H](O)CC[C@@H](O)C[C@@H](O)CC(=O)O[C@H]1C)C[C@H](O)[C@H]2C(=O)O [amphotericin B]
-- reply 1.25
